Tested On: Fuc-TIV (Homo sapiens, UniProt P22083)
Sequence (P22083 1-405 isoform P22083-2): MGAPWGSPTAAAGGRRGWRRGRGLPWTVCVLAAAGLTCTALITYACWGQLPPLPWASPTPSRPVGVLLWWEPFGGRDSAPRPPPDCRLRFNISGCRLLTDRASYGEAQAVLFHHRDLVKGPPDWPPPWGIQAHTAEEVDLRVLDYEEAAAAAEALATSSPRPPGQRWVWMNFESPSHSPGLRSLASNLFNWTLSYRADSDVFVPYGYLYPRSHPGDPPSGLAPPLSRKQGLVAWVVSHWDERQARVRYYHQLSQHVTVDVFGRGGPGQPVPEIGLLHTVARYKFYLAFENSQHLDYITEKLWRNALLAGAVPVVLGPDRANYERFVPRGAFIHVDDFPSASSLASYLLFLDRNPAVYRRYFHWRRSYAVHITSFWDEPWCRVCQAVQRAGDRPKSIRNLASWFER
Test Method Notes: Fucosyltransferase assay, extracts of COS-1 cells transfected with pCDNA1-Fuc-TIV
Format: biochemical
Design: expressed in transfected cells; host or cells: COS-1 cells, transient transfection, 1% Triton X-100 extract
Measurement Context: relative product formation rate, N-acetyllactosamine = 100; acceptor 20 mM (2-fucosyllactose 5 mM); GDP-[14C]fucose 3 μM; transfected COS-1 cell extract
Assign Relative Activity (%) with Fuc-TIV to each entry below.
Could you give me the number in %? Just the number is fine.

# compound CC(=O)N[C@H]1C(O)O[C@H](CO)[C@@H](O[C@@H]2O[C@H](CO)[C@H](O)[C@H](O)[C@H]2O)[C@@H]1O (stereo partly shown) ; its Relative Activity (%) with Fuc-TIV = 100

# compound OC[C@H]1O[C@@H](O[C@H]2[C@H](O)[C@@H](O)C(O)O[C@@H]2CO)[C@H](O)[C@@H](O)[C@H]1O (stereo partly shown) ; its Relative Activity (%) with Fuc-TIV = 3
